Where do the numbers come from? From patent US9718771B2.

targetOfAssay: UniProt:P21453
Sequence (P21453 whole entry): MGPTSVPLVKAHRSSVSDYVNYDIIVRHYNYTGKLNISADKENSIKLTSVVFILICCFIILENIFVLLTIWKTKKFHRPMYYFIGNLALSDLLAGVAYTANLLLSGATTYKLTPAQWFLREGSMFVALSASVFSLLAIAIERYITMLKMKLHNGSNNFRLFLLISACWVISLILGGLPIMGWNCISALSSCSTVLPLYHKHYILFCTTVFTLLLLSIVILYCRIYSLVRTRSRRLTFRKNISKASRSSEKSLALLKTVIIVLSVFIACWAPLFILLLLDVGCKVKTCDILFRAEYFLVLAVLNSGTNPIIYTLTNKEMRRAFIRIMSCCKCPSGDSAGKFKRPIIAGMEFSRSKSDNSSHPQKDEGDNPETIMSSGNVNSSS
methodDescription: Confirmation test of antagonistic activity for human S1P1 receptor (35S-GTP binding, cell membranes)
measurementSetup: inhibition of 35S-GTP binding induced by S1P1 receptor selective agonist; HEK293 membranes expressing human S1P1
pIC50: −log10 of the molar value.
propertyName: pIC50

Take a look at these entries with their results.
{"compound": "Cc1ccc(C(C)N(CCO)c2ccc(Cl)c(C(F)(F)F)c2)cc1CN1CC(C(=O)O)C1 (centres unmarked) [Compound 2-37]", "targetOfAssay": "UniProt:P21453", "pIC50": 8.07}
{"compound": "Cc1ccc(C(C)N(C)c2ccc(C#N)c(C(F)(F)F)c2)cc1CN1CC(C(=O)O)C1 (centres unmarked) [Compound 2-44]", "targetOfAssay": "UniProt:P21453", "pIC50": 8.05}
{"compound": "Cc1cc(N(Cc2cccc(CN3CC(C(=O)O)C3)c2)C(C)C)ccc1Cl [Compound 3-4]", "targetOfAssay": "UniProt:P21453", "pIC50": 7.82}
{"compound": "CCN(c1ccc(Cl)c(C)c1)C(C)c1ccc(OC)c(CN2CC(C(=O)O)C2)c1 (centres unmarked) [Compound 2-30]", "targetOfAssay": "UniProt:P21453", "pIC50": 8.16}
{"compound": "Cc1cc(N(C)Cc2ccc(C)c(CN3CC(C(=O)O)C3)c2)ccc1Cl [Compound 2-2]", "targetOfAssay": "UniProt:P21453", "pIC50": 8.17}
{"compound": "CCN(c1ccc(Cl)c(C)c1)C1CCCc2c(CN3CC(C(=O)O)C3)cccc21 (centres unmarked) [Compound 3-7]", "targetOfAssay": "UniProt:P21453", "pIC50": 7.89}
{"compound": "Cc1cc(N(Cc2ccc(C)c(CN3CC(C(=O)O)C3)c2)C(C)C)ccc1Cl [Compound 2-3]", "targetOfAssay": "UniProt:P21453", "pIC50": 8.55}
{"compound": "CCN(c1ccc(Cl)c(C)c1)C1CCc2c(CN3CC(C(=O)O)C3)cc(C)cc21 (centres unmarked) [Compound 2-22]", "targetOfAssay": "UniProt:P21453", "pIC50": 8.30}
{"compound": "CCN(c1ccc(Cl)c(C)c1)C(C)c1cc(Cl)cc(CN2CC(C(=O)O)C2)c1 (centres unmarked) [Compound 2-29]", "targetOfAssay": "UniProt:P21453", "pIC50": 8.92}

1 = CC(c1ccc(Cl)c(CN2CC(C(=O)O)C2)c1)N(C)c1ccc(Cl)c(C(F)(F)F)c1 (centres unmarked) [Compound 2-33]
2 = CCN(c1ccc(Cl)c(C(F)(F)F)c1)C(C)c1ccc(CO)c(CN2CC(C(=O)O)C2)c1 (centres unmarked) [Compound 5-1]
Q: When 1 and 2 are compared, which has the higher number for pIC50? Returns: label corresponding to the selected item.
Ans: 2
(2: 8.36, 1: 8.11)
